# test_target: T1, human MSLN-R3 protein (Met487-Ser606 of NCBI AAH09272.1) expressed on HEK293T-hMSLN-R3 cells (human, UniProt Q13421 487-606)
# T1 construct: also called Region3
# T1 sequence (Q13421 495-614): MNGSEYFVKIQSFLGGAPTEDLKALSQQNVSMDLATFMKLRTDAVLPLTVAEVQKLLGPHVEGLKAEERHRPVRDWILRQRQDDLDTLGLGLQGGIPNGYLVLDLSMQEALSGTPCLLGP
# assay_procedure: FACS on HEK293T-hMSLN-R3 cells
Assignment: determine reported Maximum mean fluorescence intensity for the given binders.
// response body must contain only the number

In: Which Maximum mean fluorescence intensity is listed for S009-F2.58.8 (antibody, human IgG1, kappa, V domains shown, human-murine chimeric antibody, human IgG1/kappa constant regions) VH: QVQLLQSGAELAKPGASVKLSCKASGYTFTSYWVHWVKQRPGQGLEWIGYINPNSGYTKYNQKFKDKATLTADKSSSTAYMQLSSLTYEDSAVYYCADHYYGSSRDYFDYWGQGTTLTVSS VL: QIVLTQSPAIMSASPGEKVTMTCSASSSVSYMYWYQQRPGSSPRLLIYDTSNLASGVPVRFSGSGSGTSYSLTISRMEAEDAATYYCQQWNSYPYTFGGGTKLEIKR ?
Out: 366

In: Entry S009-F2-56.12 (antibody, human IgG1, kappa, V domains shown, human-murine chimeric antibody, human IgG1/kappa constant regions) VH: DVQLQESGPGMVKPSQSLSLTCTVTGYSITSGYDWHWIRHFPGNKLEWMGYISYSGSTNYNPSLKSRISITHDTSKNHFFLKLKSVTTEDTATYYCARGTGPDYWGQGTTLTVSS VL: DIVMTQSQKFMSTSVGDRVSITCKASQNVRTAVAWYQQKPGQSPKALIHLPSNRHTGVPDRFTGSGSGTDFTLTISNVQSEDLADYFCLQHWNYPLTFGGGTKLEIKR has what Maximum mean fluorescence intensity?
Out: 94

In: Look at this binder and give its reported Maximum mean fluorescence intensity. S009-F2.38.12 (antibody, human IgG1, kappa, V domains shown, human-murine chimeric antibody, human IgG1/kappa constant regions) VH: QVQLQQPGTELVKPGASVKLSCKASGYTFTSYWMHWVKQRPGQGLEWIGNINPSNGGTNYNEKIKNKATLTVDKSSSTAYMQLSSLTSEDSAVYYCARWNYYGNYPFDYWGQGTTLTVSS VL: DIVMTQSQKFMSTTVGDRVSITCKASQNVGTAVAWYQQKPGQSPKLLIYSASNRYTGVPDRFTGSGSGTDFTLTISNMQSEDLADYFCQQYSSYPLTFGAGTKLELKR
Out: 136

These entries and their values trace back to patent US20250250357A1.
